- TEST_DESCRIPTION: Drug level in New Zealand white rabbit after 24 hrs
- Type: ADME, organism-based, Oryctolagus cuniculus
- PARTICULARS: in vivo, read-out: Drug uptake
ASSAY_METRIC: concentration at 24 h

Which concentration at 24 h is listed for Cc1cc(C[C@@H](NC(=O)N2CCC(N3Cc4cccc(F)c4NC3=O)CC2)C(=O)N2CCC(N3CCCCC3)CC2)cc2cn[nH]c12 ?
> 10 nM

###

- TEST_DESCRIPTION: Bioavailability in intratracheally dosed Sprague-Dawley rat
- Assay type: ADME, organism-based
- PARTICULARS: in vivo, inhaled or intranasal
ASSAY_METRIC: bioavailability (%)
Just the number in %, nothing appended.

Which bioavailability is listed for Cc1cc(C[C@@H](NC(=O)N2CCC(N3Cc4cccc(F)c4NC3=O)CC2)C(=O)N2CCC(N3CCCCC3)CC2)cc2cn[nH]c12 ?
73
